// values below are reported inhibition at 50 µM
- SUBJECT OF TEST: UniProt:P30561
- EXPERIMENT: Displacement of [3H]-TCDD from AhR in mouse Hepa1c1c7 cell cytosolic lysate at 50 uM by competitive binding assay relative to control
- Type: subcellular, Cytosol
- MEASUREMENT PARAMETERS: Hepa-1c1c7, mouse, read-out: Activity
Dear colleague, please return just the value in %, with no unit written.

## Task So what does the record say about inhibition at 50 µM for O=C1Cc2ccc(Cl)cc2N1 ?
## Result 50

## Task So what does the record say about inhibition at 50 µM for O=C1Cc2cc(Br)ccc2N1 ?
## Result 20

## Task So what does the record say about inhibition at 50 µM for O=C1Cc2ccc(Br)cc2N1 ?
## Result 10

* * *

- SUBJECT OF TEST: Aryl hydrocarbon receptor (Mus musculus, UniProt P30561)
- Sequence (P30561 whole entry): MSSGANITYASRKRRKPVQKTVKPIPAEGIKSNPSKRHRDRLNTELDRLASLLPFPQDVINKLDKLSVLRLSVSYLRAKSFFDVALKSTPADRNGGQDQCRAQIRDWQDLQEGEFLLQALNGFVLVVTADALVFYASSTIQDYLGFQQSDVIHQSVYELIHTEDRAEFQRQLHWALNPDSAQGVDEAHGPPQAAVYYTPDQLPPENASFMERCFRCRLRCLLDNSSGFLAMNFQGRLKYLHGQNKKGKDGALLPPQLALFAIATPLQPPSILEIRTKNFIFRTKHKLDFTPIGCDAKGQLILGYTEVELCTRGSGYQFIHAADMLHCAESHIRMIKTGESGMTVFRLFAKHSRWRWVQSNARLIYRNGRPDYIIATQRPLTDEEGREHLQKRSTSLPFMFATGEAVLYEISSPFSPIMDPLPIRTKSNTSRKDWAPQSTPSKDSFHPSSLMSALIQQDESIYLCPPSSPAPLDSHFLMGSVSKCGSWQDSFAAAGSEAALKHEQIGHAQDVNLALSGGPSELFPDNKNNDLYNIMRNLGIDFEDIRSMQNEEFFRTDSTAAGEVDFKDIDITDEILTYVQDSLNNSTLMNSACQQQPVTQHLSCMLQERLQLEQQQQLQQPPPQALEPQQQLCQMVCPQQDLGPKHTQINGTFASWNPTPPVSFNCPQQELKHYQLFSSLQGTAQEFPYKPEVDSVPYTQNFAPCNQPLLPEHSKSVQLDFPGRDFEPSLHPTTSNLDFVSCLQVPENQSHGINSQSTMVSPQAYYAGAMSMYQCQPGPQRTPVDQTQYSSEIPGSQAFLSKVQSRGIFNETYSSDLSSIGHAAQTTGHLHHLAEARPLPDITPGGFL
- EXPERIMENT: Displacement of [3H]-TCDD from AhR in mouse Hepa1c1c7 cell cytosolic lysate by competitive binding assay
// values below are reported Ki
Dear colleague, please return just the value in µM, with no unit written.

## Task Query Ki on Aryl hydrocarbon receptor (Mus musculus, UniProt P30561) for Fc1cccc2cc[nH]c12
## Result 11

## Task Query Ki on Aryl hydrocarbon receptor (Mus musculus, UniProt P30561) for O=C1Cc2ccc(Cl)cc2N1
## Result 3.7

## Task Query Ki on Aryl hydrocarbon receptor (Mus musculus, UniProt P30561) for Fc1cccc2[nH]ccc12
## Result 9.1

## Task Query Ki on Aryl hydrocarbon receptor (Mus musculus, UniProt P30561) for Brc1ccc2cc[nH]c2c1
## Result 21.7

* * *

- SUBJECT OF TEST: Aryl hydrocarbon receptor (Homo sapiens, UniProt P35869)
- Sequence (P35869 whole entry): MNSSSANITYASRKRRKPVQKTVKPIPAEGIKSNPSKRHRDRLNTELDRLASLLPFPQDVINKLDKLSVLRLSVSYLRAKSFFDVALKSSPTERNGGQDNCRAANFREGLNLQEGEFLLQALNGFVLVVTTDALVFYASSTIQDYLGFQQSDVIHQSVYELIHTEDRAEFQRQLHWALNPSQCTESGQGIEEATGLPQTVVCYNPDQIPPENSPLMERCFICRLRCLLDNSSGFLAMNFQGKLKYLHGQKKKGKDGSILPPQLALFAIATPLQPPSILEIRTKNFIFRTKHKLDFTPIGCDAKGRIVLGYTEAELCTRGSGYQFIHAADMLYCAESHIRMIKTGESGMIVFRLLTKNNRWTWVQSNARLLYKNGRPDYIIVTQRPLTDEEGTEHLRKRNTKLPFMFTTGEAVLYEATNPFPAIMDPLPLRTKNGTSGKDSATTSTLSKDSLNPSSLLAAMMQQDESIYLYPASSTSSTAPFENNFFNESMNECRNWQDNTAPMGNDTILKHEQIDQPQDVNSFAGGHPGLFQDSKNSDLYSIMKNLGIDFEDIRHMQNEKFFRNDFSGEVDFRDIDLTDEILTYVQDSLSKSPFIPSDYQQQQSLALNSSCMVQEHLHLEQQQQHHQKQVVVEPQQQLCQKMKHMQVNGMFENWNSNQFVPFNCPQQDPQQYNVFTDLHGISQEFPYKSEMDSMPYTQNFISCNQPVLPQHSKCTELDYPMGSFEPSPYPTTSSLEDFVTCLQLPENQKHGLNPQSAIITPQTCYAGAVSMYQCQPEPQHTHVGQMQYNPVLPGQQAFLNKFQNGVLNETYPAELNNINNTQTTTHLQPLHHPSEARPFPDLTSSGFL
- EXPERIMENT: Agonist activity at Luc-fused AhR (unknown origin) transcriptional activity expressed in human LS174T cells at 100 uM incubated for 4 hrs by luciferase reporter gene assay relative to control
- Format: cell-based
- MEASUREMENT PARAMETERS: read-out: Activity
// values below are reported activity at 100 µM
Dear colleague, please return just the value in %, with no unit written.

Known results for molecules:
{"columns": ["MOLECULE", "activity at 100 µM (%)"],
 "data": [
  ["O=C1Cc2ccccc2N1 [OXINDOLE]", 86],
  ["O=C1Cc2ccc(Br)cc2N1", 68],
  ["Clc1cccc2[nH]ccc12", 15],
  ["Brc1ccc2[nH]ccc2c1", 108],
  ["Clc1ccc2[nH]ccc2c1", 30],
  ["c1ccc2[nH]ccc2c1 [INDOLE]", 94]
]}

For the next question, use this molecule.
## Task So what does the record say about activity at 100 µM for Clc1ccc2cc[nH]c2c1 ?
## Result 92
